Assay Text: Comparison of solubility of precursor compounds according to the kind of reaction solvents (observation with the naked eye)
Format: physicochemical
Test Conditions: 1.0 ml t-amyl alcohol, shaking 1 minute at 60° C., naked eye
Reported Endpoint: Solubility in t-amyl alcohol (KR 10-0789847), 60° C.

| Molecule | Result |
| --- | --- |
| CC(=O)OC[C@H]1O[C@@H](OC(C)=O)[C@@H](OS(=O)(=O)C(F)(F)F)[C@@H](OC(C)=O)[C@@H]1OC(C)=O | Dissolved |
| O=[N+]([O-])c1nccn1CC(O)CF (stereo not shown) | Dissolved |
| Cc1cn([C@H]2C[C@H](OS(=O)(=O)c3ccc([N+](=O)[O-])cc3)[C@@H](COC(c3ccccc3)(c3ccccc3)c3ccccc3)O2)c(=O)n(C(=O)OC(C)(C)C)c1=O | Insoluble |
| CN(C(=O)OC(C)(C)C)c1ccc(-c2nc3ccc(OC[C@@H](COS(=O)(=O)c4ccc([N+](=O)[O-])cc4)OC4CCCCO4)cc3s2)cn1 (stereo partly shown) [FC119S] | Insoluble |

###

Assay Text: Comparison of solubility of precursor compounds according to the kind of reaction solvents (observation with the naked eye)
Format: physicochemical
Test Conditions: 1.0 ml 2-methyl-3-butyne-2-ol, shaking 1 minute at room temperature, naked eye
Reported Endpoint: Solubility in 2-methyl-3-butyne-2-ol (the present invention), room temp

| Compound | Result |
| --- | --- |
| O=[N+]([O-])c1nccn1CC(O)CF (stereo not shown) [FMISO] | Dissolved |
| CC(=O)OC[C@H]1O[C@@H](OC(C)=O)[C@@H](OS(=O)(=O)C(F)(F)F)[C@@H](OC(C)=O)[C@@H]1OC(C)=O [FDG] | Dissolved |
| CN(C(=O)OC(C)(C)C)c1ccc(-c2nc3ccc(OC[C@@H](COS(=O)(=O)c4ccc([N+](=O)[O-])cc4)OC4CCCCO4)cc3s2)cn1 (stereo partly shown) [FC119S] | Dissolved |
